experiment: Solubility by gravimetric method in 14 solvents; format: physicochemical; conditions: MIBK, 23 °C, organic solvent or mixture, thermodynamic from solid
measurement-label: solubility at 2 days (mg/mL)

compound: CCNn1c(C)c(C(=O)N[C@H](c2ccccc2)C2CC2)c2cccc(F)c2c1=O [SJB-01]
measurement-label: solubility at 2 days
result-unit: mg/mL
reported: 40

====

assay: Solubility by gravimetric method in 14 solvents; assay type: physicochemical; settings: MIBK, 50 °C, organic solvent or mixture, thermodynamic from solid

smiles-structure: CCNn1c(C)c(C(=O)N[C@H](c2ccccc2)C2CC2)c2cccc(F)c2c1=O
result-unit: mg/mL
solubility at 2 days: 61

====

experiment: Solubility in buffered solutions vs pH at 37 °C (HPLC); format: physicochemical; conditions: Citric acid/NaOH 0.05M buffer, pH 4.9, aqueous buffer, thermodynamic from solid; Citric acid/NaOH 0.05M, initial pH 4.90, 24 h pH 4.90, 37 °C; read-out: Solubility at 24 h

smiles-structure: CCNn1c(C)c(C(=O)N[C@H](c2ccccc2)C2CC2)c2cccc(F)c2c1=O
result-unit: µg/mL
solubility at 24 h: 7.2

====

assay: Solubility by gravimetric method in 14 solvents; type: physicochemical; details: isopropanol (IPA), organic solvent or mixture, thermodynamic from solid; IPA, 50 °C

compound: CCNn1c(C)c(C(=O)N[C@H](c2ccccc2)C2CC2)c2cccc(F)c2c1=O [SJB-01]
solubility at 2 days, mg/mL: 64

====

experiment: Solubility by gravimetric method in 14 solvents; type: physicochemical; conditions: MtBE, 23 °C, organic solvent or mixture, thermodynamic from solid

molecule: CCNn1c(C)c(C(=O)N[C@H](c2ccccc2)C2CC2)c2cccc(F)c2c1=O [SJB-01]
solubility at 2 days: 8000 µg/mL

====

experiment: pKa determination, co-solvent potentiometric titration (Yasuda-Shedlovsky extrapolation); format: physicochemical; conditions: basic; 25.4 °C; MeOH co-solvent potentiometric, extrapolated to 0% co-solvent; read-out: pKa (basic)

smiles-structure: CCNn1c(C)c(C(=O)N[C@H](c2ccccc2)C2CC2)c2cccc(F)c2c1=O
pKa: 3.03

====

assay: Solubility in buffered solutions vs pH at 37 °C (HPLC); type: physicochemical; conditions: KH2PO4/NaOH 0.05M buffer, aqueous buffer, thermodynamic from solid; KH2PO4/NaOH 0.05M, initial pH 5.98, 24 h pH 6.04, 37 °C; read-out: Solubility at 24 h

molecule: CCNn1c(C)c(C(=O)N[C@H](c2ccccc2)C2CC2)c2cccc(F)c2c1=O [SJB-01]
solubility at 24 h / µg/mL: 7.1

Where do the numbers come from? From patent US20210371385A1.
